Measured pIC50 accompanies every entry in the list below.
# EXPERIMENTAL TARGET: KRAS WT (Homo sapiens (Human), UniProt P01116+P62937)
# Sequence (P01116-2 other isoform, or with tags, fused parts or gaps, one chain of several): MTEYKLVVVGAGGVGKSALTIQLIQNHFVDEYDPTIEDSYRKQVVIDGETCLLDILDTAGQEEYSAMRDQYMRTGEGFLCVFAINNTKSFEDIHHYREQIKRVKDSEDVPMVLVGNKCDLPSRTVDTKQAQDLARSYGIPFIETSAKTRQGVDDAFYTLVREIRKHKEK
# PROCEDURE TEXT: Ras-Raf (BRAF RBD) disruption / FRET / MOA assay, KRAS WT
# Assay type: biochemical
# CONDITION CONTEXT: read-out: IC50* KRAS WT FRET data
pIC50: −log10 of the molar value.

For orientation, consider the following solved cases.
1. C=CC(=O)N1CC[C@H](C(=O)N(C)[C@H](C(=O)N[C@H]2Cc3cc(O)cc(c3)-c3ccc4c(c3)c(c(-c3ccc(CN(C)C)nc3COC)n4CC)CC(C)(C)COC(=O)[C@@H]3CCCN(N3)C2=O)C(C)C)C1 [Example A103] :: 5.00 to 6.00
2. CCn1c(-c2ccccc2CCOC)c2c3cc(ccc31)-c1cc(O)cc(c1)C[C@H](NC(=O)[C@H](C(C)C)N(C)C(=O)c1ccc(N(C)C(=O)/C=C/CN(C)C)cc1)C(=O)N1CCC[C@H](N1)C(=O)OCC(C)(C)C2 [Example A220] :: < 5.00

**Query** Entry under review: CCn1c(-c2cccnc2[C@H](C)OC)c2c3cc(ccc31)-c1csc(n1)C[C@H](NC(=O)[C@H](C(C)C)N(C)C(=O)N1C[C@H]3CN(C(=O)C#CC(C)(C)N(C)C)CC[C@H]31)C(=O)N1CCC[C@H](N1)C(=O)OCC(C)(C)C2 (atropisomer, axis not shown) [Example A624] . Reported pIC50?
**Result** 6.00 to 7.00

**Query** Quick one: pIC50 for C=CC(=O)N1CC[C@H](C(=O)N(C)[C@H](C(=O)N[C@H]2Cc3cc(O)cc(c3)-c3ccc4c(c3)c(c(-c3ccc(CN(C)C)c(COC)c3)n4CC)CC(C)(C)COC(=O)[C@@H]3CCCN(N3)C2=O)C(C)C)C1 [Example A111] ?
**Result** 5.00 to 6.00

----------
# EXPERIMENTAL TARGET: K-Ras G13C (Homo sapiens (Human), UniProt P01116+P62937, G13C)
# Sequence (P01116-2 other isoform, or with tags, fused parts or gaps G13C): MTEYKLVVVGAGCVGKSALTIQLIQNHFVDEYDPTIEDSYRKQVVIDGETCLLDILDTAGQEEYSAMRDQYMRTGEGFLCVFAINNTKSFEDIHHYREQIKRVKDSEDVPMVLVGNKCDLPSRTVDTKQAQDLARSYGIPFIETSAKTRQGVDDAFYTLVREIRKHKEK
# Sequence (P62937 whole entry): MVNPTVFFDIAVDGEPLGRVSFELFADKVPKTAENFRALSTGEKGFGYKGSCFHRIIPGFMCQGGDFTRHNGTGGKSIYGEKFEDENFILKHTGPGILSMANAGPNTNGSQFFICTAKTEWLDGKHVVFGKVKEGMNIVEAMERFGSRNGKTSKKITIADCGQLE
# PROCEDURE TEXT: Ras-Raf (BRAF RBD) disruption / FRET / MOA assay, KRAS G13C
# Format: biochemical
# CONDITION CONTEXT: KRAS G13C; Ras-Raf disruption/FRET/MOA assay; read-out: IC50* KRAS G13C FRET data
ENDPOINT LABEL: IC50

Before answering, review these 3 worked examples.
1. CO[C@@H](C)c1ncccc1-c1c2c3cc(ccc3n1CC(F)(F)F)-c1csc(n1)C[C@H](NC(=O)CCOC1CN(C(=O)C#CC(C)(C)N3CCC3)C1)C(=O)N1CCC[C@H](N1)C(=O)OCC(C)(C)C2 (atropisomer, axis not shown) [Example A363] :: 1000 to 10000 nM
2. C=CC(=O)N1CC[C@H](C(=O)N(C2CC2)[C@H](C(=O)N[C@H]2Cc3cccc(c3)-c3ccc4c(c3)c(c(-c3cccnc3[C@H](C)OC)n4CC)CC(C)(C)COC(=O)[C@@H]3CCCN(N3)C2=O)C(C)C)C1 (atropisomer, axis not shown) [Example A398] :: 1000 to 10000 nM
3. C=CC(=O)N1CC[C@H](C(=O)N(C)[C@H](C(=O)N[C@H]2Cc3cc(O)cc(c3)-c3ccc4c(c3)c(c(-c3cn(C)cn3)n4CC)CC(C)(C)COC(=O)[C@@H]3CCCN(N3)C2=O)C(C)C)C1 [Example A113] :: > 10000 nM

**Query** Request: IC50, test system K-Ras G13C (Homo sapiens (Human), UniProt P01116+P62937, G13C), entry C=CC(=O)N1CCO[C@H]2CCN(C(=O)N(C)[C@H](C(=O)N[C@H]3Cc4nc(cs4)-c4ccc5c(c4)c(c(-c4cccnc4[C@H](C)OC)n5CC)CC(C)(C)COC(=O)[C@@H]4CCCN(N4)C3=O)C(C)C)C[C@@H]21 (atropisomer, axis not shown) [Example A609]
**Result** 10 to 100 nM

----------
# EXPERIMENTAL TARGET: KRAS WT (Homo sapiens (Human), UniProt P01116+P62937)
# PROCEDURE TEXT: Ras-Raf (BRAF RBD) disruption / FRET / MOA assay, KRAS WT
# Format: biochemical
# CONDITION CONTEXT: read-out: IC50* KRAS WT FRET data
pIC50: −log10 of the molar value.
Below, each entry is listed alongside its reported pIC50.

// solved cases for pIC50 follow
1) C=CS(=O)(=O)N1CCC2(CCN([C@H](C(=O)N[C@H]3Cc4cc(O)cc(c4)-c4ccc5c(c4)c(c(-c4cccnc4[C@H](C)OC)n5CC)CC(C)(C)COC(=O)[C@@H]4CCCN(N4)C3=O)C(C)C)C2=O)CC1 (atropisomer, axis not shown) :: 7.00 to 8.00
2) C=CC(=O)N1CCN(C(=O)N(C)[C@H](C(=O)N[C@H]2Cc3nc(cs3)-c3ccc4c(c3)c(c(-c3cccnc3[C@H](C)OC)n4CC)CC(C)(C)COC(=O)[C@@H]3CCCN(N3)C2=O)C(C)C)C2(CC2)C1 (atropisomer, axis not shown) :: 6.00 to 7.00
3) CCn1c(-c2cncnc2)c2c3cc(ccc31)-c1cccc(c1)C[C@H](NC(=O)[C@H](C(C)C)N(C)C(=O)[C@H]1CCN(C(=O)C#CCN(C)C)C1)C(=O)N1CCC[C@H](N1)C(=O)OCC(C)(C)C2 :: < 5.00

**Query** What value of pIC50 has been reported for the following compound? `CCn1c(-c2cccnc2COC)c2c3cc(ccc31)-c1cc(C)cc(c1)C[C@H](NC(=O)[C@H](C(C)C)N(C)C(=O)[C@H]1CCN(C(=O)C#CCN(C)C)C1)C(=O)N1CCC[C@H](N1)C(=O)OCC(C)(C)C2`
**Result** < 5.00

----------
# EXPERIMENTAL TARGET: K-Ras G13C (Homo sapiens (Human), UniProt P01116+P62937, G13C)
# PROCEDURE TEXT: Ras-Raf (BRAF RBD) disruption / FRET / MOA assay, KRAS G13C
# Assay type: biochemical
# CONDITION CONTEXT: KRAS G13C; Ras-Raf disruption/FRET/MOA assay; read-out: IC50* KRAS G13C FRET data
pIC50: −log10 of the molar value.
Below, each of the compounds is paired with its reported pIC50 value.

1) C=CC(=O)N1C[C@H](C)N(C(=O)N(C)[C@H](C(=O)N[C@H]2Cc3nc(cs3)-c3ccc4c(c3)c(c(-c3cccnc3[C@H](C)OC)n4CC)CC(C)(C)COC(=O)[C@@H]3CCCN(N3)C2=O)C(C)C)[C@@H](C)C1 (atropisomer, axis not shown) [Example A386] :: 6.00 to 7.00
2) CCn1c(-c2cccnc2[C@H](C)OC)c2c3cc(ccc31)-c1cccc(c1)C[C@H](NC(=O)[C@H](C(C)C)N1CC[C@]3(CCN(C(=O)C#C[C@@]4(N(C)C)CCOC4)C3)C1=O)C(=O)N1CCC[C@H](N1)C(=O)OCC(C)(C)C2 (atropisomer, axis not shown) [Example A560] :: 6.00 to 7.00
3) CCn1c(-c2cccnc2[C@H](C)OC)c2c3cc(ccc31)-c1cc(O)cc(c1)C[C@H](NC(=O)[C@H](C(C)C)N1CCC3(CN(C(=O)/C=C/CN(C)C)C3)C1=O)C(=O)N1CCC[C@H](N1)C(=O)OCC(C)(C)C2 (atropisomer, axis not shown) [Example A270] :: > 8.00
4) CCn1c(-c2cccnc2[C@H](C)OC)c2c3cc(ccc31)-c1cccc(c1)C[C@H](NC(=O)[C@@H](COC1CN(C(=O)C#CC(C)(C)N(C)C3CC3)C1)C(C)C)C(=O)N1CCC[C@H](N1)C(=O)OCC(C)(C)C2 (atropisomer, axis not shown) [Example A613] :: < 5.00
5) CO[C@@H](C)c1ncccc1-c1c2c3cc(ccc3n1CC(F)(F)F)-c1csc(n1)C[C@H](NC(=O)[C@H](C(C)C)N(C)C(=O)N1CCN(C(=O)/C=C/CN(C)C)C3(CC3)C1)C(=O)N1CCC[C@H](N1)C(=O)OCC(C)(C)C2 (atropisomer, axis not shown) [Example A664] :: 7.00 to 8.00

**Query** Give the measured pIC50 of CCn1c(-c2cncnc2)c2c3cc(ccc31)-c1cccc(c1)C[C@H](NC(=O)[C@H](C(C)C)N(C)C(=O)[C@H]1CCN(C(=O)C#CCN(C)C)C1)C(=O)N1CCC[C@H](N1)C(=O)OCC(C)(C)C2 [Example A144] .
**Result** 5.00 to 6.00

**Query** # pIC50 lookup, item C=CC(=O)N1CC[C@H](C(=O)N(C)[C@H](C(=O)N[C@H]2Cc3csc(n3)-c3ccc4c(c3)c(c(-c3cccnc3COC)n4CC)CC(C)(C)COC(=O)[C@@H]3CCCN(N3)C2=O)C(C)C)C1 [Example A118]
**Result** < 5.00

**Query** // lookup pIC50 for CCn1c(-c2cccnc2[C@H](C)OC)c2c3cc(ccc31)-c1cccc(c1)C[C@H](NC(=O)[C@H](C(C)C)N(C)C(=O)[C@H]1CCN(C(=O)/C=C/C(F)F)C1)C(=O)N1CCC[C@H](N1)C(=O)OCC(C)(C)C2 (atropisomer, axis not shown) [Example A485]
**Result** 6.00 to 7.00

Sourced from patent US11566007B2
